All values here come from the supplement of paper PMC11417369.

# Tested on: PfAP2-LT AP2 domain (GST-tagged)
# assay_method_text: gcPBM binding intensity (ln(normalized median fluorescence intensity)); higher = stronger DNA binding
Whole data set: some 25,000 sequences, median “ln(normalized median fluorescence intensity)” near 8.9, cut for the highest 2% near 10. The sample holds the highest values, similar sequences and a random draw of the others, so the mix is not that of the screen.
gcPBM binding intensity (ln) listing for selected sequences.
Simply state the number, no unit and no words.

Sample records with gcPBM binding intensity (ln):
- TATATTTATATATGTTGTACTCTCCAATAATATTCC [XGTACX_site4438]: 8.76
- TATATAAATGGACACACACACACCTTATAATTATTA [CACACA_site6093]: 10
- ACAGTTTGTCTGAGTAGTACATAAATACTTGAAAGG [XGTACX_site7792]: 8.79
- ACATTATATTTGGACTGTACTAATATATTGTTATAT [XGTACX_site5573]: 8.91
- AATGAAATAAATAAGGGTACACATAAATATATATAT [XGTACX_site7006]: 9.04

For the sequence shown here, ATATATATATATATATGTACATATTTTATAACTGTA [XGTACX_site5395] , give the reported gcPBM binding intensity (ln). 9.72

// lookup gcPBM binding intensity (ln) for TGCACGCACAGACACACACACAACTAAAAAATAATG [CACACA_site7250] 9.54

For the sequence shown here, TAAATAAGCACATACACACATACATACATACATAAA [CACACA_site4017] , give the reported gcPBM binding intensity (ln). 9.44

For TTCTGAACAAAATTATATATTTATTTTTATTTTCAT [CACACA_negctrl_site422] , what is its reported gcPBM binding intensity (ln)? 8.48

// query gcPBM binding intensity (ln) value for entry TGTCTTATTTATATTACACACTATATGAAAAAATAT [CACACA_site6807] 8.6

Look up gcPBM binding intensity (ln): TTATATTATATATATATTATATATATGTATGCATAA [TGCATGCA_negctrl_site481] 8.72
